# TEST_SYSTEM: AgrA (Staphylococcus aureus, UniProt P0A0I7)
# Sequence (P0A0I7 whole entry): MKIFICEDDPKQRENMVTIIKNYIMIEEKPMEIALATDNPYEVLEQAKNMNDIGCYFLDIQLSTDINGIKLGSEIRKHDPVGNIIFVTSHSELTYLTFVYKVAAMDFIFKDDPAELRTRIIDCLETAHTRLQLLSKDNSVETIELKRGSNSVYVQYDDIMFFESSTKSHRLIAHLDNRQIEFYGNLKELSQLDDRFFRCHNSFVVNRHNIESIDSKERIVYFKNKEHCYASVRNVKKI
# MEASUREMENT_NOTES: cell-based
# Set-up: species or system S. aureus USA300 strain UAMS-1625
# ASSAY_CONDITIONS: IC50 without HSA, LB medium, without HSA
Would you kindly list IC50 for each of these molecules?

Example entries and their recorded answers appear below.
Cc1ccc(S(=O)(=O)c2nnn3c2[nH]c(=O)c2cc(O)c(N4CCN(C)CC4)cc23)c(C)c1 | < 2130 nM
Cc1ccc(S(=O)(=O)c2nnn3c2[nH]c(=O)c2ccc(N4CCN(CCN)CC4)cc23)c(C)c1 | 2080 to 10400 nM
Cc1ccc(S(=O)(=O)c2nnn3c2[nH]c(=O)c2ccc(N4CCN5CCC[C@H]5C4)cc23)c(C)c1 | 2090 to 10400 nM
CNC1CCN(c2ccc3c(=O)[nH]c4c(S(=O)(=O)c5ccc(C)cc5C)nnn4c3c2)CC1 | < 2140 nM
Cc1ccc(S(=O)(=O)c2nnn3c2[nH]c(=O)c2ccc(N4CC5(CCN5C)C4)cc23)c(C)c1 | < 2150 nM

List the reported IC50 of each molecule below.
1. Cc1ccc(S(=O)(=O)c2nnn3c2[nH]c(=O)c2ccc(N4CCN5CCCC5C4)cc23)c(C)c1 (centres unmarked)
2. Cc1ccc(S(=O)(=O)c2n[nH]n3c2nc(=O)c2ccc(N4CCC5(CCN(C)CC5)C4)cc23)c(C)c1
3. Cc1ccc(S(=O)(=O)c2nnn3c2[nH]c(=O)c2ccc(N4CCC(C(=O)O)CC4)cc23)c(C)c1
4. Cc1ccc(S(=O)(=O)c2nnn3c2[nH]c(=O)c2ccc(N4CC[C@@H](N)C4)cc23)c(C)c1
5. Cc1ccc(S(=O)(=O)c2nnn3c2[nH]c(=O)c2ccc(N4CC5CCC(C4)N5)cc23)c(C)c1
6. Cc1ccc(S(=O)(=O)c2nnn3c2[nH]c(=O)c2ccc(N4CCN(C)CC4)cc23)c(C)c1
7. Cc1ccc(S(=O)(=O)c2n[nH]n3c2nc(=O)c2ccc(N4CCC5(CC4)CNCCO5)cc23)c(C)c1
8. Cc1ccc(S(=O)(=O)c2nnn3c2[nH]c(=O)c2ccc(N4CCC(N)CC4)cc23)c(C)c1

Result:
1: < 2090 nM; 2: < 1970 nM; 3: < 2080 nM; 4: < 2280 nM; 5: 2150 to 10800 nM; 6: < 2210 nM; 7: < 1970 nM; 8: < 2210 nM

Batch lookup, IC50 per entry.
1. Cc1ccc(S(=O)(=O)c2nnn3c2[nH]c(=O)c2ccc(N4CC5(COC5)C4)cc23)c(C)c1
2. Cc1ccc(S(=O)(=O)c2nnn3c2[nH]c(=O)c2ccc(N4CCC4)cc23)c(C)c1 [45 (WO 2020/109350), reference compound]
3. COCCOc1cc2c(cc1O)c(=O)[nH]c1c(S(=O)(=O)c3ccc(C)cc3C)nnn12 [58 (WO 2020/109350), reference compound]
4. Cc1ccc(S(=O)(=O)c2nnn3c2[nH]c(=O)c2ccc(N4CCN(C)C(=O)C4)cc23)c(C)c1
5. Cc1ccc(S(=O)(=O)c2nnn3c2[nH]c(=O)c2ccc(N4CCCN(C)CC4)cc23)c(C)c1
6. Cc1ccc(S(=O)(=O)c2nnn3c2[nH]c(=O)c2ccc(N4C[C@@H](C)N(C)[C@@H](C)C4)cc23)c(C)c1

Result:
1. < 2210 nM
2. < 2440 nM
3. < 2250 nM
4. < 2140 nM
5. 2140 to 10700 nM
6. < 2080 nM

Provide the reported IC50 of each entry below, same order.
1. Cc1ccc(S(=O)(=O)c2nnn3c2[nH]c(=O)c2ccc(N4CCC(N(C)C)CC4)cc23)c(C)c1
2. Cc1ccc(S(=O)(=O)c2n[nH]n3c2nc(=O)c2ccc(N4CC5(CC(O)C5)C4)cc23)c(C)c1
3. Cc1ccc(S(=O)(=O)c2nnn3c2[nH]c(=O)c2ccc(N4CCN(C)C(C)(C)C4)cc23)c(C)c1

Result:
["2080 to 10400 nM", "< 2150 nM", "2080 to 10400 nM"]

###

# TEST_SYSTEM: AgrA (Staphylococcus aureus, UniProt P0A0I7)
# MEASUREMENT_NOTES: cell-based
# Design: species or system S. aureus USA300 strain UAMS-1625
# ASSAY_CONDITIONS: 40 mg/mL HSA vs without HSA
ATTRIBUTE_MEASURED: Ratio IC50 (in presence of HSA)/IC50 (in absence of HSA)

// worked examples, Ratio IC50 (in presence of HSA)/IC50 (in absence of HSA) included
Cc1ccc(S(=O)(=O)c2nnn3c2[nH]c(=O)c2cc(O)c(N4CCN(C)CC4)cc23)c(C)c1 | +++ (ratio ≤ 25)
Cc1ccc(S(=O)(=O)c2n[nH]n3c2nc(=O)c2ccc(N4CC5(C4)CC(C)(O)C5)cc23)c(C)c1 | ++ (ratio ≤ 125)
Cc1ccc(S(=O)(=O)c2nnn3c2[nH]c(=O)c2ccc(N4CCC5C(CCN5C)C4)cc23)c(C)c1 (stereo not drawn) | +++ (ratio ≤ 25)
Cc1ccc(S(=O)(=O)c2nnn3c2[nH]c(=O)c2ccc(N4CCCN(C)CC4)cc23)c(C)c1 | +++ (ratio ≤ 25)

Go through the list and state Ratio IC50 (in presence of HSA)/IC50 (in absence of HSA) for each entry.
1. Cc1ccc(S(=O)(=O)c2nnn3c2[nH]c(=O)c2ccc(N4CCN(C)C(=O)C4)cc23)c(C)c1
2. Cc1ccc(S(=O)(=O)c2nnn3c2[nH]c(=O)c2ccc(N4CCC45CN(C)C5)cc23)c(C)c1
3. Cc1ccc(S(=O)(=O)c2nnn3c2[nH]c(=O)c2ccc(N4C[C@@H](C)N(C)[C@@H](C)C4)cc23)c(C)c1
4. Cc1ccc(S(=O)(=O)c2nnn3c2[nH]c(=O)c2ccc(N4CCCNCC4)cc23)c(C)c1
5. Cc1ccc(S(=O)(=O)c2n[nH]n3c2nc(=O)c2ccc(N4CC5(CC(O)C5)C4)cc23)c(C)c1

Result:
["++ (ratio ≤ 125)", "+++ (ratio ≤ 25)", "+++ (ratio ≤ 25)", "+++ (ratio ≤ 25)", "++ (ratio ≤ 125)"]

###

# TEST_SYSTEM: AgrA (Staphylococcus aureus)
# MEASUREMENT_NOTES: cell-based
# Parameters: species or system S. aureus USA300 strain UAMS-1625
# ASSAY_CONDITIONS: IC50 without HSA, LB medium, without HSA
ATTRIBUTE_MEASURED: IC50

Worked cases, IC50 given:
Cc1ccc(S(=O)(=O)c2n[nH]n3c2nc(=O)c2ccc(N4CCOC5(CCN(C)CC5)C4)cc23)c(C)c1 [Compound 18] | 1.91 to 9.57 µM
Cc1ccc(S(=O)(=O)c2nnn3c2[nH]c(=O)c2ccc(N4CCN(C(C)CO)CC4)cc23)c(C)c1 (stereo not shown) [Compound 44] | < 2.01 µM
Cc1ccc(S(=O)(=O)c2n[nH]n3c2nc(=O)c2ccc(N4CCC5(CCNC[C@@H]5O)CC4)cc23)c(C)c1 [Compound 19] | 1.91 to 9.57 µM

As a next step, examine the compound that follows.
Task: Using the record for CNC1CCN(c2ccc3c(=O)[nH]c4c(S(=O)(=O)c5ccc(C)cc5C)nnn4c3c2)C1 (stereo not shown) [Compound 34] , report its IC50.
Result: < 2.21 µM

###

# TEST_SYSTEM: UniProt:P0A0I7
# MEASUREMENT_NOTES: cell-based
# Parameters: species or system S. aureus USA300 strain UAMS-1625
# ASSAY_CONDITIONS: IC50 at 40 mg/mL HSA (cells marked *), marked *: activity in presence of 50% of human serum; not determined in 40 mg/mL HSA
pIC50: −log10 of the molar value.
ATTRIBUTE_MEASURED: pIC50

Cc1ccc(S(=O)(=O)c2nnn3c2[nH]c(=O)c2cc(O)ccc23)c(C)c1 [46 (WO 2020/109350), reference compound] | < 3.87

Now consider a different compound.
Task: Name the recorded pIC50 for COCCOc1cc2c(cc1O)c(=O)[nH]c1c(S(=O)(=O)c3ccc(C)cc3C)nnn12 [58 (WO 2020/109350), reference compound] .
Result: < 3.95

###

# TEST_SYSTEM: AgrA (Staphylococcus aureus, UniProt P0A0I7)
# MEASUREMENT_NOTES: cell-based
# Parameters: species or system S. aureus USA300 strain UAMS-1625
# ASSAY_CONDITIONS: IC50 at 40 mg/mL HSA, LB medium supplemented with 40 mg/mL human serum albumin
pIC50: −log10 of the molar value.
ATTRIBUTE_MEASURED: pIC50

Field: example entries. Status: answers known.
Cc1ccc(S(=O)(=O)c2nnn3c2[nH]c(=O)c2ccc(N4CC(C)N(C)C(C)C4)cc23)c(C)c1 (stereo not drawn) | 3.98 to 4.68
Cc1ccc(S(=O)(=O)c2n[nH]n3c2nc(=O)c2ccc(N4CCN(C5CCOCC5)CC4)cc23)c(C)c1 | 4.02 to 4.72
Cc1ccc(S(=O)(=O)c2nnn3c2[nH]c(=O)c2ccc(N4CCN(CC(F)(F)F)CC4)cc23)c(C)c1 | 4.02 to 4.72
CNC1CCN(c2ccc3c(=O)[nH]c4c(S(=O)(=O)c5ccc(C)cc5C)nnn4c3c2)C1 (stereo not drawn) | 3.96 to 4.66

Would you be so kind as to report pIC50 for each listed record?
1. Cc1ccc(S(=O)(=O)c2nnn3c2[nH]c(=O)c2ccc(N4CCN(C)CC4)cc23)c(C)c1
2. Cc1ccc(S(=O)(=O)c2n[nH]n3c2nc(=O)c2ccc(N4CCC5(CC4)CNCCO5)cc23)c(C)c1

Result:
1: 3.96 to 4.66; 2: 4.01 to 4.71
